protocol-description: protein stability index of a GFP-peptide fusion (GPS, HEK-293T) (PSI 1-6); higher = more stable;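 note: 24-mer peptide tiles fused after GFP, lentivirally expressed, FACS-sorted into six equal bins by GFP/DsRed ratio, decoded by Illumina sequencing, PSI is the read-weighted mean bin number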
protocol-conditions: treatment: DMSO; c terminus: a fixed tail appended
Quick rule: protein stability index of at least 3 means True, below that means False.

Please tell me: is the sequence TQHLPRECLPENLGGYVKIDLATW [PTPN9] at or over 3 in terms of protein stability index?
False

Please tell me: is the sequence LRQQQDEAYLASLRADQEKERKKR [FAF2] at or over 3 in terms of protein stability index?
True

Please tell me: is the sequence PKEPAPPNGSAAEPPTEAASREEN [PALM] at or over 3 in terms of protein stability index?
True

Please tell me: is the sequence SHGVRNKCLQLLGNLGSLEKSVTK [INTS4] at or over 3 in terms of protein stability index?
True

Please tell me: is the sequence VGITVLNLCALSVDRYRAVASWSR [EDNRA] at or over 3 in terms of protein stability index?
False

Please tell me: is the sequence QEEEEDNRDSSMKLSFRARAYGFR [CHGA] at or over 3 in terms of protein stability index?
True

----------
protocol-description: protein stability index of a GFP-peptide fusion (GPS, HEK-293T) (PSI 1-6); higher = more stable
protocol-conditions: treatment: MLN4924 1 uM, 8 h; c terminus: a fixed tail appended
Quick rule: protein stability index of at least 4 means True, below that means False.

Please tell me: is the sequence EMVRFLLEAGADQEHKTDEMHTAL [ANKRD17] at or over 4 in terms of protein stability index?
False

Please tell me: is the sequence TLPAGADFLMCYSVAEGYYSHRET [CASP6] at or over 4 in terms of protein stability index?
False

Please tell me: is the sequence MLSKGLKRKREEEEEKEPLAVDSW [SERTAD1] at or over 4 in terms of protein stability index?
True

Please tell me: is the sequence LGCYAVYSLLYLEHKGWYSWVLSM [CLPTM1] at or over 4 in terms of protein stability index?
False

Please tell me: is the sequence DKNLTEREVFNEIYPVWTYSYLVL [SLC19A2] at or over 4 in terms of protein stability index?
False

Please tell me: is the sequence TSRGGPWVGTGLAAALAGLVGLAT [CPOX] at or over 4 in terms of protein stability index?
False

Please tell me: is the sequence PTPQVDELDILPIHPPSGNSDLDP [BTBD10] at or over 4 in terms of protein stability index?
True

Please tell me: is the sequence RFHYDRNPGTDAVAQTSLEEFNVL [FATE1] at or over 4 in terms of protein stability index?
False

Please tell me: is the sequence LASYLEKVRALEEANADLEVKIRD [KRT13] at or over 4 in terms of protein stability index?
False

Please tell me: is the sequence AIVSCTPVHLIDKLPLPVTIKSHL [RAB40C] at or over 4 in terms of protein stability index?
False

----------
protocol-description: protein stability index of a GFP-peptide fusion (GPS, HEK-293T) (PSI 1-6); higher = more stable
protocol-conditions: treatment: DMSO; c terminus: a fixed tail appended
property: protein stability index

Entry QLPRPPIVGGNKGRSGPLPPVPLG [WAS] : reported protein stability index = ?
3.55

Entry DEQKEEEEEEGEEEELIRIFQEQQ [FAM9B] : reported protein stability index = ?
5.51

Entry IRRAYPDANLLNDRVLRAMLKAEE [CCND1] : reported protein stability index = ?
2.96

Entry QPSKSHKKVLKKMLKFLAKGEVPK [ATE1] : reported protein stability index = ?
2.13

Entry LEKGADVNRKSVKGNTALHDCAES [FEM1C] : reported protein stability index = ?
5.18

Entry KSIDPVLMAPTCVFLASKVEEFGV [CCNC] : reported protein stability index = ?
1.92

Entry QKLQEITRCKSSEEKKPGELKRLV [TRIM39] : reported protein stability index = ?
4.16

Entry PRIEASKVLLCHGELRSKSGHKLY [NET1] : reported protein stability index = ?
2.64

Entry VPHNGSSEATLPAQMSTLHVSPPP [PDLIM4] : reported protein stability index = ?
4.87

Entry SLRRRGASAAARLGCNRQSWCLKR [TRIM14] : reported protein stability index = ?
3.28

Entry EGFQRCDVARQLGKNNEFSRLVAG [PSD2] : reported protein stability index = ?
3.22

Entry GILERYWLSSRAAAIKVNDSVPFH [MYORG] : reported protein stability index = ?
2.02

Entry QETPGPREALTRLQELCYQWLRPH [ZSCAN9] : reported protein stability index = ?
2.54

Entry NKLALQYGCKVADIKKVNNFIREQ [LYSMD4] : reported protein stability index = ?
2.25

Entry EESILERVQQHIESKLLGSNSSRM [MLH1] : reported protein stability index = ?
3.96

Entry SWTTVTSMTTPRCYVGATVLRGRL [KLHL12] : reported protein stability index = ?
2.23

Entry TASDSESRAESAPLPVSADDTPEV [CDS2] : reported protein stability index = ?
5.48

Entry FLSLDIPIGELYGLSESSGPHTIS [ACSBG2] : reported protein stability index = ?
2.39

Entry PAATMAVELHYEEGSPRNLGTPTS [C2CD2L] : reported protein stability index = ?
4.4

Entry PGFSTLSLADQMSLLQSAWMEILI [ESRRG] : reported protein stability index = ?
2.27

Entry IVAGGYDERVLENVEHYQELKKMV [ALG2] : reported protein stability index = ?
3.14

Entry FWRIDEDYPVQVAPLSNGLCCAFS [WSB1] : reported protein stability index = ?
2.06

Entry RQIRTNWATRKPPAPKSTYECRCI [TIA1] : reported protein stability index = ?
2.56

Entry TVFYIPEDHKPGTFPKALTNGSFS [DLC1] : reported protein stability index = ?
2.86

Entry DCILRDTSEDLRLQCDAVNLAFGR [TEKT4] : reported protein stability index = ?
3.4

Entry HYMEENLMDGGDLPSVTDIRRPRL [PLK2] : reported protein stability index = ?
4.15

Entry YDFIVTKARGKSGPLFNFDVHDDV [FAM50A] : reported protein stability index = ?
2.65

Entry EASAEGPRAVFVLLEERRPADSAQ [TFE3] : reported protein stability index = ?
3.93

Entry LEETEPPLEPEDALSDAEFEGEGD [P3H4] : reported protein stability index = ?
5.49

Entry YAYSNGIDYKTTTILLDGRRVRLE [RAB40C] : reported protein stability index = ?
2.68

Entry RVLSPLHRGPSGHTEASAQRSHMG : reported protein stability index = ?
4.1

Entry DRTSHRLHTANLGDSGFLVVRGGE [PPTC7] : reported protein stability index = ?
4.08

Entry YGFYDECLRKYGNANVWKYFTDLF [PPP2CA] : reported protein stability index = ?
2.5

Entry MFSDNSHCPDCGQQWFPSLELGHW [TOR1AIP2] : reported protein stability index = ?
2.33

Entry EQIHLLLSSQCFSNISRPRDNPMC [M1AP] : reported protein stability index = ?
2.25

Entry FSEALAEGAVKMGMPSSLAHRIAA [PYCR3] : reported protein stability index = ?
3.12

Entry GGYLTELEDGFYLTAFICFLVFIL [MFSD9] : reported protein stability index = ?
1.98

Entry MYSSSCETTRNTTGIEESTDGMIL [LARP4] : reported protein stability index = ?
4.33

Entry PSRVHASEVESAVWYVKKFGRYLE [FBXO39] : reported protein stability index = ?
2.42

Entry DLNGAQIKLREYEAALNSKDAALA [LMNB1] : reported protein stability index = ?
3.5

Entry MGPYNPDTCPEVGFFDVLGNDRRR [ACBD3] : reported protein stability index = ?
4.08

Entry SVGGVPGGTGSGDGNKIFLCHCGK [ZBTB22] : reported protein stability index = ?
3.51

Entry NSSQSSSDGSCKTAGEMVFVYENA [BTBD10] : reported protein stability index = ?
4.22

Entry AKTFHLVNPNGQKQQLVDAFLKLA [FAN1] : reported protein stability index = ?
2

Entry GKIRRGAYALPAGLSAPARCLVRC [TRIB3] : reported protein stability index = ?
2.47

Entry STQIRALTEQQEQLRGQLQDLDSR [RASAL3] : reported protein stability index = ?
5.14

Entry GFAMYYFTYDPWIGKLLYLEDFFV [SAT1] : reported protein stability index = ?
3.16

Entry HLDIWKSAAWMKERTSPGAIHYCA [SPDEF] : reported protein stability index = ?
2.21

Entry LPRKDYESLDYDRCINDPYLEVLE [CLCN6] : reported protein stability index = ?
3.4

Entry QVLYEWEQGFSQSFTQEQVADIDG [CTNNB1] : reported protein stability index = ?
4.24

Cited source: the supplement of paper PMC10567573
